- Tested on: Huh-7 cells
- procedure_text: Cell viability assay (MTT), Huh-7
- Type: cell-based, human
- test_conditions: Homo sapiens, Huh-7, 24 h, Huh-7; RT2 Gy, S (regorafenib added 24 h following RT); MTT after 24 h; read-out: IC50 (estimated concentration at which 50% of cells were killed)
property: IC50 (µM)
# output: bare number, implied unit µM

// query Param item = CNC(=O)c1cc(Oc2ccc(NC(=O)Nc3ccc(Cl)c(C(F)(F)F)c3)c(F)c2)ccn1 [regorafenib, Regorafenib] ; retrieve measured IC50.
// result 12.1

----------
- procedure_text: Pharmacokinetics of regorafenib in plasma of freely moving rats with or without RT (HPLC-UV)
- Type: in vivo, Sprague-Dawley rats
- test_conditions: male, Sprague-Dawley, rat, plasma, po, 16 mg/kg, rat plasma; RT9 Gy × 3 f'x followed by regorafenib 16 mg/kg p.o. × 3 d (sequential); read-out: t½
- Text: The Institutional Animal Experimentation Committee of National Yang-Ming University, Taipei, Taiwan, and the Institutional Animal Care and Use Committee (IACUC, approval number 1070523) reviewed and approved the protocol. […] According to the formula used to translate doses from animal to human, human equivalent dose (HED, mg/kg) = animal dose (mg/kg) × animal km/human km, we calculated the daily dose of regorafenib for rats to be 16 (mg/kg/day). […]
property: half-life
# include the unit after the value

// query Param item = `CNC(=O)c1cc(Oc2ccc(NC(=O)Nc3ccc(Cl)c(C(F)(F)F)c3)c(F)c2)ccn1` ; retrieve measured half-life.
// result 9.52 h

----------
- procedure_text: Organ distribution of regorafenib in rats with or without RT
- Format: in vivo, Sprague-Dawley rats
- test_conditions: male, Sprague-Dawley, rat, brain, oral, 16 mg/kg, rat, 4 h after oral administration; RT2 Gy × 1 f'x with regorafenib 16 mg/kg × 1 d (concurrent); read-out: Concentration in brain
property: concentration at 4 h (ng/g)
# output: bare number, implied unit ng/g

// query Param item = `CNC(=O)c1cc(Oc2ccc(NC(=O)Nc3ccc(Cl)c(C(F)(F)F)c3)c(F)c2)ccn1` ; retrieve measured concentration at 4 h.
// result 20

----------
- procedure_text: Organ distribution of regorafenib in rats with or without RT
- Assay type: in vivo, Sprague-Dawley rats
- test_conditions: male, Sprague-Dawley, rat, heart, oral, 16 mg/kg, rat, 4 h after oral administration; RT9 Gy × 3 f'x followed by regorafenib 16 mg/kg × 3 d (sequential); read-out: Concentration in heart
- Protocol: According to the formula used to translate doses from animal to human, human equivalent dose (HED, mg/kg) = animal dose (mg/kg) × animal km/human km, we calculated the daily dose of regorafenib for rats to be 16 (mg/kg/day). The rats were randomly divided into ten groups with six rats in each group. […] The organ samples were homogenized in 50% aqueous acetonitrile (sample weight: volume = 1:5) and centrifuged at 13,000× g, for 10 min, at 4 °C. […] Finally, the filtrate (20 μL) was analyzed by HPLC.
property: concentration at 4 h
# include the unit after the value

// query Param item = `CNC(=O)c1cc(Oc2ccc(NC(=O)Nc3ccc(Cl)c(C(F)(F)F)c3)c(F)c2)ccn1` ; retrieve measured concentration at 4 h.
// result 170 ng/g

----------
- procedure_text: Organ distribution of regorafenib in rats with or without RT
- Format: in vivo, Sprague-Dawley rats
- test_conditions: male, Sprague-Dawley, rat, kidney, oral, 16 mg/kg, rat, 4 h after oral administration; RT9 Gy × 1 f'x followed by regorafenib 16 mg/kg × 1 d (sequential); read-out: Concentration in kidneys
property: concentration at 4 h (ng/g)
# output: bare number, implied unit ng/g

// query Param item = `CNC(=O)c1cc(Oc2ccc(NC(=O)Nc3ccc(Cl)c(C(F)(F)F)c3)c(F)c2)ccn1` ; retrieve measured concentration at 4 h.
// result 590

----------
- procedure_text: Pharmacokinetics of regorafenib in plasma of freely moving rats with or without RT (HPLC-UV)
- Assay type: in vivo, Sprague-Dawley rats
- test_conditions: male, Sprague-Dawley, rat, plasma, po, 16 mg/kg, rat plasma; RT2 Gy × 3 f'x followed by regorafenib 16 mg/kg p.o. × 3 d (sequential)
property: Tmax (h)
# output: bare number, implied unit h

// query Param item = `CNC(=O)c1cc(Oc2ccc(NC(=O)Nc3ccc(Cl)c(C(F)(F)F)c3)c(F)c2)ccn1` ; retrieve measured Tmax.
// result 1.67

----------
- procedure_text: Pharmacokinetics of regorafenib in plasma of freely moving rats with or without RT (HPLC-UV)
- Type: in vivo, Sprague-Dawley rats
- test_conditions: male, Sprague-Dawley, rat, plasma, po, 16 mg/kg, rat plasma; RT2 Gy × 1 f'x followed by regorafenib 16 mg/kg p.o. × 1 d (sequential)
property: MRT (h)
# output: bare number, implied unit h

// query Param item = CNC(=O)c1cc(Oc2ccc(NC(=O)Nc3ccc(Cl)c(C(F)(F)F)c3)c(F)c2)ccn1 [regorafenib, Regorafenib] ; retrieve measured MRT.
// result 9.22

----------
- procedure_text: Organ distribution of regorafenib in rats with or without RT
- Type: in vivo, Sprague-Dawley rats
- test_conditions: male, Sprague-Dawley, rat, brain, po, 16 mg/kg, rat, 4 h after oral administration; 16 mg/kg p.o. × 3 d, no RT; read-out: Concentration in brain
property: concentration at 4 h (ng/g)
# output: bare number, implied unit ng/g

// query Param item = CNC(=O)c1cc(Oc2ccc(NC(=O)Nc3ccc(Cl)c(C(F)(F)F)c3)c(F)c2)ccn1 [regorafenib, Regorafenib] ; retrieve measured concentration at 4 h.
// result 10

----------
- procedure_text: Organ distribution of regorafenib in rats with or without RT
- Format: in vivo, Sprague-Dawley rats
- test_conditions: Sprague-Dawley, rat, brain, oral, 16 mg/kg, rat, 4 h after oral administration; RT2 Gy × 3 f'x with regorafenib 16 mg/kg × 3 d (concurrent); read-out: Concentration in brain
property: concentration at 4 h (ng/g)
# output: bare number, implied unit ng/g

// query Param item = `CNC(=O)c1cc(Oc2ccc(NC(=O)Nc3ccc(Cl)c(C(F)(F)F)c3)c(F)c2)ccn1` ; retrieve measured concentration at 4 h.
// result 20

----------
- procedure_text: Organ distribution of regorafenib in rats with or without RT
- Assay type: in vivo, Sprague-Dawley rats
- test_conditions: male, Sprague-Dawley, rat, spleen, po, 16 mg/kg, rat, 4 h after oral administration; 16 mg/kg p.o. × 1 d, no RT; read-out: Concentration in spleen
property: concentration at 4 h (ng/g)
# output: bare number, implied unit ng/g

// query Param item = `CNC(=O)c1cc(Oc2ccc(NC(=O)Nc3ccc(Cl)c(C(F)(F)F)c3)c(F)c2)ccn1` ; retrieve measured concentration at 4 h.
// result 260

----------
- procedure_text: Organ distribution of regorafenib in rats with or without RT
- Type: in vivo, Sprague-Dawley rats
- test_conditions: Sprague-Dawley, rat, lung, oral, 16 mg/kg, rat, 4 h after oral administration; RT2 Gy × 3 f'x followed by regorafenib 16 mg/kg × 3 d (sequential); read-out: Concentration in lung
- Protocol: According to the formula used to translate doses from animal to human, human equivalent dose (HED, mg/kg) = animal dose (mg/kg) × animal km/human km, we calculated the daily dose of regorafenib for rats to be 16 (mg/kg/day). The rats were randomly divided into ten groups with six rats in each group. […] The organ samples were homogenized in 50% aqueous acetonitrile (sample weight: volume = 1:5) and centrifuged at 13,000× g, for 10 min, at 4 °C. […] Finally, the filtrate (20 μL) was analyzed by HPLC.
property: concentration at 4 h (ng/g)
# output: bare number, implied unit ng/g

// query Param item = `CNC(=O)c1cc(Oc2ccc(NC(=O)Nc3ccc(Cl)c(C(F)(F)F)c3)c(F)c2)ccn1` ; retrieve measured concentration at 4 h.
// result 990

----------
- procedure_text: Pharmacokinetics of regorafenib in plasma of freely moving rats with or without RT (HPLC-UV)
- Assay type: in vivo, Sprague-Dawley rats
- test_conditions: male, Sprague-Dawley, rat, plasma, po, 16 mg/kg, rat plasma; RT9 Gy × 3 f'x with regorafenib 16 mg/kg p.o. × 3 d (concurrent)
- Source text: The Institutional Animal Experimentation Committee of National Yang-Ming University, Taipei, Taiwan, and the Institutional Animal Care and Use Committee (IACUC, approval number 1070523) reviewed and approved the protocol. […] According to the formula used to translate doses from animal to human, human equivalent dose (HED, mg/kg) = animal dose (mg/kg) × animal km/human km, we calculated the daily dose of regorafenib for rats to be 16 (mg/kg/day). […]
property: Tmax (h)
# output: bare number, implied unit h

// query Param item = CNC(=O)c1cc(Oc2ccc(NC(=O)Nc3ccc(Cl)c(C(F)(F)F)c3)c(F)c2)ccn1 [regorafenib, Regorafenib] ; retrieve measured Tmax.
// result 1.63

----------
- procedure_text: Organ distribution of regorafenib in rats with or without RT
- Assay type: in vivo, Sprague-Dawley rats
- test_conditions: Sprague-Dawley, rat, kidney, oral, 16 mg/kg, rat, 4 h after oral administration; RT2 Gy × 3 f'x followed by regorafenib 16 mg/kg × 3 d (sequential); read-out: Concentration in kidneys
property: concentration at 4 h (ng/g)
# output: bare number, implied unit ng/g

// query Param item = `CNC(=O)c1cc(Oc2ccc(NC(=O)Nc3ccc(Cl)c(C(F)(F)F)c3)c(F)c2)ccn1` ; retrieve measured concentration at 4 h.
// result 730
